EXPERIMENTAL_ENDPOINT: melting point

Solved entries (count: 3):
SMILES_RECORD: COc1cccc(OC)c1/C=C1\SC(=O)NC1=O
melting point: 241 to 242 °C
//
SMILES_RECORD: O=C1NC(=O)C(=Cc2c[nH]c3ccc([N+](=O)[O-])cc23)S1
melting point: 330 to 333 °C
//
SMILES_RECORD: O=C1NC(=O)/C(=C/c2cc3ccccc3[nH]c2=O)S1
melting point: 338 to 347 °C

Continue with the next compound.
Task: Name the reported melting point value associated with the compound c1cc(COc2ccc3ccccc3c2)cc(-c2nnn[nH]2)c1
Result: 200 to 202 °C

* * *

- EXPERIMENTAL_PROTOCOL: Chemical stability of insulin formulations by RPC (reverse phase chromatography)
- Assay type: physicochemical
- COND: formulated human insulin, 3 Zn2+ per hexamer; 37° C.
EXPERIMENTAL_ENDPOINT: hphob1 (hydrophobic derivatives 1) (% formed/year)
A number alone suffices; assume % formed/year.

Example compounds with recorded hphob1 (hydrophobic derivatives 1):
COMPOUND: O=C(O)c1cc2cc(Br)ccc2cc1O [Example 533, 7-bromo-3-hydroxy-2-naphthoic acid]
hphob1 (hydrophobic derivatives 1) / % formed/year: 22.4

COMPOUND: CCN(CC)c1ccc(/C=C2\SC(=O)NC2=O)cc1 [Example 70]
hphob1 (hydrophobic derivatives 1) / % formed/year: 14.8

COMPOUND: O=C(O)/C=C/c1ccc(/C=C2\SC(=O)NC2=O)cc1 [Example 462]
hphob1 (hydrophobic derivatives 1) / % formed/year: 19.5

Moving on to another compound below.
Task: Name the recorded hphob1 (hydrophobic derivatives 1) for O=C(O)COc1cccc(/C=C2\SC(=O)NC2=O)c1 [Example 461] .
Result: 20.0

* * *

# hphil (hydrophilic derivatives, desamido-insulins) per entry
- EXPERIMENTAL_PROTOCOL: Chemical stability of insulin formulations by RPC (reverse phase chromatography)
- Type: physicochemical
- COND: formulated human insulin, 3 Zn2+ per hexamer; 25° C.
Give just the number in % formed/year; leave the unit off.

Below are worked cases with known answers.
COMPOUND: O=C(O)COc1cccc(/C=C2\SC(=O)NC2=O)c1
OBS_VALUE: 2.86
--
COMPOUND: CCN(CC)c1ccc(/C=C2\SC(=O)NC2=O)cc1
OBS_VALUE: 6.08
--
COMPOUND: O=C(O)/C=C/c1ccc(/C=C2\SC(=O)NC2=O)cc1
OBS_VALUE: 2.60

From here, focus on the item given below.
Task: Reported hphil (hydrophilic derivatives, desamido-insulins), compound O=C(O)c1cc2cc(Br)ccc2cc1O [Example 533, 7-bromo-3-hydroxy-2-naphthoic acid] : ____
Result: 4.06

* * *

- EXPERIMENTAL_PROTOCOL: Chemical stability of insulin formulations by SEC (size exclusion chromatography)
- Format: physicochemical
- COND: formulated human insulin, 3 Zn2+ per hexamer; 37° C.
EXPERIMENTAL_ENDPOINT: dimer (% formed/year)
Report as a plain number; the unit % formed/year is understood.

MOLECULE: O=C(O)COc1cccc(/C=C2\SC(=O)NC2=O)c1
OBS_VALUE: 6.50

MOLECULE: O=C(O)c1cc2cc(Br)ccc2cc1O [Example 533, 7-bromo-3-hydroxy-2-naphthoic acid]
OBS_VALUE: 7.02

MOLECULE: O=C(O)/C=C/c1ccc(/C=C2\SC(=O)NC2=O)cc1
OBS_VALUE: 6.24

Task: # get_value(readout='dimer', item= CCN(CC)c1ccc(/C=C2\SC(=O)NC2=O)cc1 )
Result: 8.84

Data origin, for the record: patent US20050065066A1
